- Tested system: GLUT1 (Homo sapiens, UniProt P11166)
- Construct: endogenous in cells; host or cells: DLD1 WT cancer cells
- Sequence (P11166 1-492): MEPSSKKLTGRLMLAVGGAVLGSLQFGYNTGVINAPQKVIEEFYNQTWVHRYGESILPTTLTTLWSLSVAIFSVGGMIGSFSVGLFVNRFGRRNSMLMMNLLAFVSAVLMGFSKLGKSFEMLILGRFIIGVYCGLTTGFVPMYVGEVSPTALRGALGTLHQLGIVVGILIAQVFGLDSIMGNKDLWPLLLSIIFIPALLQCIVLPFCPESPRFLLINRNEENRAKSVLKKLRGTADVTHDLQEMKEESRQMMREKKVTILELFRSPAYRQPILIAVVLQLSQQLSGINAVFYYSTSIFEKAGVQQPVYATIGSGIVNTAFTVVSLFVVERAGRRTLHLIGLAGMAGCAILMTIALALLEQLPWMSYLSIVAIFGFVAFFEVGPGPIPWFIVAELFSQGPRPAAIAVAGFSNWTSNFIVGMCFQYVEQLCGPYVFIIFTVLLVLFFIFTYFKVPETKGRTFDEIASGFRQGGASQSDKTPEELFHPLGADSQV
- Test: glycolysis assay in DLD1 WT cells (rely on GLUT1)
- Assay type: cell-based
- Condition summary: DLD1-WT cells; 10 μM oligomycin, one hour
Reported IC50 by item:
State just the number; it will be interpreted in nM.

Consider the reported IC50 for these compounds:
[[record]]
compound = "CCOc1ccc2nc(-c3cccc(OCC(=O)NC(C)C)c3)nc(Nc3ccc(-c4cn[nH]c4)cc3)c2c1"
measured_number = 115

[[record]]
compound = "COc1ccc2nc(-c3cccc(OCC(=O)NCC(F)(F)F)c3)nc(Nc3ccc(-c4cn[nH]c4)cc3)c2c1"
measured_number = 1070

[[record]]
compound = "CCOc1ccc2nc(-c3cccc(OCC(=O)NC(C)C)c3)nc(Nc3ccc(-c4cn[nH]c4)cc3F)c2c1"
measured_number = 786

[[record]]
compound = "CCOc1ccc2nc(-c3cccc(OCC(=O)NC4CCCC4)c3)nc(Nc3ccc(-c4cn[nH]c4)cc3)c2c1"
measured_number = 81

[[record]]
compound = "CCCNC(=O)COc1cccc(-c2nc(Nc3ccc(-c4cn[nH]c4)cc3)c3cc(OCC)ccc3n2)c1"
measured_number = 1020


Supply measured IC50 of CCOc1ccc2nc(-c3cccc(OCC(=O)NCC(F)(F)F)c3)nc(Nc3ccc(-c4cn[nH]c4)cc3)c2c1 in your reply. 801

Supply measured IC50 of CCOc1ccc2nc(-c3cccc(OCC(=O)NC4CC4)c3)nc(Nc3ccc(-c4cn[nH]c4)cc3)c2c1 in your reply. 52

Supply measured IC50 of CCC(C)NC(=O)COc1cccc(-c2nc(Nc3ccc(-c4cn[nH]c4)cc3)c3cc(F)ccc3n2)c1 (stereo not drawn) in your reply. 91.2

Supply measured IC50 of CC[C@@H](C)NC(=O)COc1cccc(-c2nc(Nc3ccc(-c4cn[nH]c4)cc3)c3cc(OCCF)ccc3n2)c1 in your reply. 38.5

Supply measured IC50 of CC[C@@H](C)NC(=O)COc1cccc(-c2nc(Nc3ccc(-c4cn[nH]c4)cc3)c3ccc(F)cc3n2)c1 in your reply. 192

Supply measured IC50 of COc1ccc2nc(-c3cccc(OCC(=O)NCC(C)C)c3)nc(Nc3ccc(-c4cn[nH]c4)cc3)c2c1 in your reply. 47

Supply measured IC50 of CC[C@H](C)NC(=O)COc1cccc(-c2nc(Nc3ccc(-c4cn[nH]c4)cc3)c3cc(F)ccc3n2)c1 in your reply. 94.9

Supply measured IC50 of CCOc1ccc2nc(-c3cccc(OCC(=O)NC(C)(C)C)c3)nc(Nc3ccc(-c4cn[nH]c4)cc3)c2c1 in your reply. 59.6

Supply measured IC50 of CC[C@@H](C)NC(=O)COc1cccc(-c2nc(Nc3ccc(-c4cn[nH]c4)cc3)c3cc(F)ccc3n2)c1 in your reply. 106

Supply measured IC50 of CCOc1ccc2nc(-c3cccc(OCC(=O)N[C@H](C)CC)c3)nc(Nc3ccc(-c4cn[nH]c4)cc3)c2c1 in your reply. 116

----------
- Tested system: GLUT3 (Homo sapiens, UniProt P11169)
- Construct: endogenous in cells; host or cells: DLD1 GLUT1−/− (knock-out) cancer cells
- Sequence (P11169 whole entry): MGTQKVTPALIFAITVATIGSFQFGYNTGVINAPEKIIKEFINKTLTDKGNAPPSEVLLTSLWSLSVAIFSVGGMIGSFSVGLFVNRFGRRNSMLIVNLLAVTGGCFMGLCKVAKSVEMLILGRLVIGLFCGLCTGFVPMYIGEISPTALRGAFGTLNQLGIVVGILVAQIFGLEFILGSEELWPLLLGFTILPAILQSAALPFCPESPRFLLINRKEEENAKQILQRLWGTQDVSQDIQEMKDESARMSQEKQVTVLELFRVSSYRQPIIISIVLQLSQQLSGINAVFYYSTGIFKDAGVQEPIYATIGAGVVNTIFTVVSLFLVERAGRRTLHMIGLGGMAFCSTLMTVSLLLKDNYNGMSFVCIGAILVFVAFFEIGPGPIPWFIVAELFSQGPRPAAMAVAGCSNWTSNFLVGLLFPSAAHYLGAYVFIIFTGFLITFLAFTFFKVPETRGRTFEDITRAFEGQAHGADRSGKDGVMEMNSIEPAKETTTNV
- Test: glycolysis assay in DLD1 GLUT1−/− cells (rely on GLUT3)
- Type: cell-based
- Condition summary: DLD1-KO (GLUT1−/−) cells; 10 μM oligomycin, one hour
Reported IC50 by item:
State just the number; it will be interpreted in nM.

[[record]]
molecule = "CC(C)NC(=O)COc1cccc(-c2nc(Nc3ccc(-c4cn[nH]c4)cc3)c3ccc(F)cc3n2)c1 [Ex. 34]"
tested_system = "GLUT3 (Homo sapiens, UniProt P11169)"
reported_endpoint = "IC50"
measured_number = 197

[[record]]
molecule = "CCCNC(=O)COc1cccc(-c2nc(Nc3ccc(-c4cn[nH]c4)cc3)c3cc(OCC)ccc3n2)c1 [Ex. 16]"
tested_system = "GLUT3 (Homo sapiens, UniProt P11169)"
reported_endpoint = "IC50"
measured_number = 127


Supply measured IC50 of CCCOc1ccc2nc(-c3cccc(OCC(=O)NC(C)(C)C)c3)nc(Nc3ccc(-c4cn[nH]c4)cc3)c2c1 [Ex. 37] in your reply. 158

Supply measured IC50 of CCC(C)NC(=O)COc1cccc(-c2nc(Nc3ccc(-c4cn[nH]c4)cc3)c3cc(OCCOC)ccc3n2)c1 (stereo not shown) [Ex. 42] in your reply. 41.6

Supply measured IC50 of CCOc1ccc2nc(-c3cccc(OCC(=O)NC(C)CC)c3)nc(Nc3ccc(-c4cn[nH]c4)cc3)c2c1 (stereo not shown) [Ex. 18] in your reply. 43.9

Supply measured IC50 of COc1ccc2nc(-c3cccc(OCC(=O)NC4CC4)c3)nc(Nc3ccc(-c4cn[nH]c4)cc3)c2c1 [Ex. 9] in your reply. 76.1

Supply measured IC50 of CC(C)NC(=O)COc1cccc(-c2nc(Nc3ccc(-c4cn[nH]c4)cc3)c3cc(F)ccc3n2)c1 [Ex. 33] in your reply. 183

Supply measured IC50 of CC[C@@H](C)NC(=O)COc1cccc(-c2nc(Nc3ccc(-c4cn[nH]c4)cc3)c3cc(F)ccc3n2)c1 [Ex. 51] in your reply. 125

Supply measured IC50 of CCOc1ccc2nc(-c3cccc(OCC(=O)NC4CC(F)(F)C4)c3)nc(Nc3ccc(-c4cn[nH]c4)cc3)c2c1 [Ex. 19] in your reply. 66.1

Supply measured IC50 of CC(C)(C)NC(=O)COc1cccc(-c2nc(Nc3ccc(-c4cn[nH]c4)cc3)c3cc(OCCF)ccc3n2)c1 [Ex. 38] in your reply. 51.5

----------
Reported IC50 by item:
- Tested system: GLUT1 (Homo sapiens, UniProt P11166)
- Construct: endogenous in cells; host or cells: DLD1 WT cancer cells
- Sequence (P11166 1-492): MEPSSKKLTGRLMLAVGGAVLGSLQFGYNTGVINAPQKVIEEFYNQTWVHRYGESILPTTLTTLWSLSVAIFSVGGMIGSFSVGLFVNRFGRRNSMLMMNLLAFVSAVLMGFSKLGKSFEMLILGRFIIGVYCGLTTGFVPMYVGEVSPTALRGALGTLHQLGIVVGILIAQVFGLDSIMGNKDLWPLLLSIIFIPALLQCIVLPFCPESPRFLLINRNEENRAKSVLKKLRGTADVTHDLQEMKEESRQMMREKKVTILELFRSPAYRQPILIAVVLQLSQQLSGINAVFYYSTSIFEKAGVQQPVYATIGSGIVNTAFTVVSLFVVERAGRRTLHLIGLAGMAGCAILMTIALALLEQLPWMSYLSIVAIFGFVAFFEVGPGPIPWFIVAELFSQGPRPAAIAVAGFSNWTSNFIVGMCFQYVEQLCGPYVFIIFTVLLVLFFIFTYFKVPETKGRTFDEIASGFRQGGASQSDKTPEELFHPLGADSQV
- Test: glycolysis assay in DLD1 WT cells (rely on GLUT1)
- Format: cell-based
- Condition summary: DLD1-WT cells; 10 μM oligomycin, one hour
State just the number; it will be interpreted in nM.

[[record]]
test_smiles = "CC(C)NC(=O)COc1cccc(-c2nc(Nc3ccc(-c4cn[nH]c4)cc3)c3cc(F)ccc3n2)c1"
reported_endpoint = "IC50"
measured_number = 802

[[record]]
test_smiles = "COCCOc1ccc2nc(-c3cccc(OCC(=O)NC(C)(C)C)c3)nc(Nc3ccc(-c4cn[nH]c4)cc3)c2c1"
reported_endpoint = "IC50"
measured_number = 40.6

[[record]]
test_smiles = "COc1ccc2nc(-c3cccc(OCC(=O)NC(C)C)c3)nc(Nc3ccc(-c4cn[nH]c4)cc3F)c2c1"
reported_endpoint = "IC50"
measured_number = 709

[[record]]
test_smiles = "CC(C)NC(=O)COc1cccc(-c2nc(Nc3ccc(-c4cn[nH]c4)cc3)c3ccc(F)cc3n2)c1"
reported_endpoint = "IC50"
measured_number = 797

[[record]]
test_smiles = "COc1ccc2nc(-c3cccc(OCC(=O)NC(C)(C)C)c3)nc(Nc3ccc(-c4cn[nH]c4)cc3)c2c1"
reported_endpoint = "IC50"
measured_number = 86.9

[[record]]
test_smiles = "CCCOc1ccc2nc(-c3cccc(OCC(=O)NC(C)C)c3)nc(Nc3ccc(-c4cn[nH]c4)cc3)c2c1"
reported_endpoint = "IC50"
measured_number = 178


Supply measured IC50 of CC[C@H](C)NC(=O)COc1cccc(-c2nc(Nc3ccc(-c4cn[nH]c4)cc3)c3cc(OCCF)ccc3n2)c1 in your reply. 34.8
